# Method notes: Pharmacokinetics in dogs (plasma concentration by HPLC)
# Assay type: in vivo, dog (beagle)
# Measurement context: dog, plasma, po, 2 mg/kg/day, one dog (Dog 1), day 1; 2 mg/kg/day PO
# Protocol: Since dogs are used in toxicology studies of antiasthma compounds, this species is chosen for pharmacokinetic evaluations. […] Heparinized blood samples are obtained from each animal on the first, third and fifth day of dosage at 0.5, 1.0, 2.0, 4.0, 7.0, 12.0 and 24.0 hours after the dose. The samples are centrifuged immediately to obtain plasma which is frozen until analyzed. […]
Attribute measured: Cmax (ng/mL)
Lab book: enter the figure in ng/mL, no units written.

Exercise: Report Cmax for CCN(CC)CCOc1ccc(Nc2nccc(-c3ccncc3)n2)cc1.Cl.Cl [Compound 3, reference compound] please.
Solution: 125
